Wee-1 kinase (Homo sapiens, UniProt P30291): reported IC50 for various molecules.
Sequence (P30291 whole entry): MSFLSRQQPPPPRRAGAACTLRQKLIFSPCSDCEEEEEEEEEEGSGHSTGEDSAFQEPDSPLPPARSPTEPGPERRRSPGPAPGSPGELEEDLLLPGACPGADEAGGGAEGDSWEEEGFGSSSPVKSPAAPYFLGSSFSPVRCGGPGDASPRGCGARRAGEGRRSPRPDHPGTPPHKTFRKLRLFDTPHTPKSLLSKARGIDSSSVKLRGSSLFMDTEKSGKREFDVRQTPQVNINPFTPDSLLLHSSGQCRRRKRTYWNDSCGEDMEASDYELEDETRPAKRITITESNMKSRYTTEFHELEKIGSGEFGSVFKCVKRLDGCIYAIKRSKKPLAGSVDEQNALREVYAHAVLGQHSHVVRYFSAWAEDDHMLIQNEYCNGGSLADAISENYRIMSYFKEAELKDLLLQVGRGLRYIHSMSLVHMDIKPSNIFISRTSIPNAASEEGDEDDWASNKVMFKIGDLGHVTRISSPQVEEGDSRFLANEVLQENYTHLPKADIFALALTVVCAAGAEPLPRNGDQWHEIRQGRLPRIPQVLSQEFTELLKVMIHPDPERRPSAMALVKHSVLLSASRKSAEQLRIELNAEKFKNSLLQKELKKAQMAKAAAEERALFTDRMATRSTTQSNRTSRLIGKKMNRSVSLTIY

{"input.smiles": "C=CCn1c(=O)c2cnc(Nc3ccc4c(c3)CN(C)CC4(F)F)nc2n1-c1ccc(=O)n(C(C)C)n1", "measured.quantity": "IC50", "measured.value": "≤ 30 nM"}

Kindly give each listed record's IC50.
1. C=CCn1c(=O)c2cnc(Nc3cnn(C4CCN(C)CC4)c3)nc2n1-c1ccc(=O)n(C(C)C)n1
2. C=CCn1c(=O)c2cnc(Nc3cc(Cl)c(N4CCN(C)CC4)c(Cl)c3)nc2n1-c1ccc(=O)n(C(C)C)n1
3. C=CCn1c(=O)c2cnc(Nc3ccc(N4CCN(C)CC4)cc3)nc2n1-c1ccc(=O)n(C(C)(C)CO)n1

30 to 100 nM
≤ 30 nM
≤ 30 nM
